Test system: SF-539 CNS
Assay: NCI tumour cell line growth inhibition, 384-well format
Property label: GI50

Solved cases below.
CC1(C)CCC(c2ccc(Cl)cc2)=C(CN2CCN(c3ccc(C(=O)NS(=O)(=O)c4ccc(N[C@H](CCN5CCOCC5)CSc5ccccc5)c(S(=O)(=O)C(F)(F)F)c4)cc3)CC2)C1; 1.72 µM
O=C1Nc2ccc(I)cc2/C1=C/c1cc(Br)c(O)c(Br)c1; 15.4 µM
Cc1cc(C)c(CNC(=O)c2cc(Cl)c3c(c2C)O[C@@](C)(C2CCC(N(C)C)CC2)O3)c(=O)[nH]1 (some centres undefined); 35 µM

Then there is this compound:
// query Param readout= GI50; system= SF-539 CNS; entry= `N#CCC1CCN(c2nc(Nc3ccc(N4CCC(O)CC4)cc3)c3c(=O)[nH]ncc3n2)CC1` ; returns value.
// result 0.793 µM

====

Tested on: UO-31 renal
Assay: NCI tumour cell line growth inhibition, 384-well format
# reported TGI; entries follow
Your answer is read as µM, so omit the unit and give the number.

Solved cases below.
CN1CC[C@H](N(C)C(=O)N2CC(c3cc(F)ccc3F)=C[C@@]2(CO)c2ccccc2)[C@H](F)C1; 95.1
O=C1Nc2ccc(I)cc2/C1=C/c1cc(Br)c(O)c(Br)c1; 28.2

Then there is this compound:
// query So what's the measured TGI for this one? `COc1cc(C(=O)N[C@@H]2CCCN(C)C2)ccc1Nc1ncc2c(n1)N(C1CCCC1)CC(C)(C)C(=O)N2C`
// result 1.39

====

System: HOP-62 NSCLC
Assay: NCI tumour cell line growth inhibition, 384-well format; in the data active = GI50 below about 0.43 µM; inactive = the rest
# output must be one of Yes for active, No for inactive

The examples below pair each entry with its known result.
Cc1cc(C)c(CNC(=O)c2cc(Cl)c3c(c2C)O[C@@](C)(C2CCC(N(C)C)CC2)O3)c(=O)[nH]1 (some centres undefined); No
N#CCC1CCN(c2nc(Nc3ccc(N4CCC(O)CC4)cc3)c3c(=O)[nH]ncc3n2)CC1; No
CC1(C)CCC(c2ccc(Cl)cc2)=C(CN2CCN(c3ccc(C(=O)NS(=O)(=O)c4ccc(N[C@H](CCN5CCOCC5)CSc5ccccc5)c(S(=O)(=O)C(F)(F)F)c4)cc3)CC2)C1; No

// query Write down the call the test reported for this molecule. Item: `COc1cc(C(=O)N[C@@H]2CCCN(C)C2)ccc1Nc1ncc2c(n1)N(C1CCCC1)CC(C)(C)C(=O)N2C`
// result Yes

====

# reported TGI; entries follow
Tested on: PC-3 prostate
Assay: NCI tumour cell line growth inhibition, 384-well format
Your answer is read as µM, so omit the unit and give the number.

Solved cases below.
CN1CC[C@H](N(C)C(=O)N2CC(c3cc(F)ccc3F)=C[C@@]2(CO)c2ccccc2)[C@H](F)C1; 27.1
O=C1Nc2ccc(I)cc2/C1=C/c1cc(Br)c(O)c(Br)c1; 27.1

Then there is this compound:
// query So what's the measured TGI for this one? `CC1(C)CCC(c2ccc(Cl)cc2)=C(CN2CCN(c3ccc(C(=O)NS(=O)(=O)c4ccc(N[C@H](CCN5CCOCC5)CSc5ccccc5)c(S(=O)(=O)C(F)(F)F)c4)cc3)CC2)C1`
// result 3.12

====

Tested on: SNB-19 CNS
Test: NCI tumour cell line growth inhibition, 384-well format; in the data active means GI50 below about 0.43 µM; inactive means the rest
# output must be one of true for active, false for inactive

The examples below pair each entry with its known result.
Cc1cc(C)c(CNC(=O)c2cc(Cl)c3c(c2C)O[C@@](C)(C2CCC(N(C)C)CC2)O3)c(=O)[nH]1 (some centres undefined); false
N#CCC1CCN(c2nc(Nc3ccc(N4CCC(O)CC4)cc3)c3c(=O)[nH]ncc3n2)CC1; false
COc1cc(C(=O)N[C@@H]2CCCN(C)C2)ccc1Nc1ncc2c(n1)N(C1CCCC1)CC(C)(C)C(=O)N2C; true

// query Write down the call the test reported for this compound. Item: `CC1(C)CCC(c2ccc(Cl)cc2)=C(CN2CCN(c3ccc(C(=O)NS(=O)(=O)c4ccc(N[C@H](CCN5CCOCC5)CSc5ccccc5)c(S(=O)(=O)C(F)(F)F)c4)cc3)CC2)C1`
// result false

====

Test system: LOX IMVI melanoma
Test: NCI tumour cell line growth inhibition, 384-well format; in the data active = GI50 below about 0.43 µM; inactive = the rest
# output must be one of Y = active, N = inactive

The examples below pair each entry with its known result.
O=C1Nc2ccc(I)cc2/C1=C/c1cc(Br)c(O)c(Br)c1; N
CC1(C)CCC(c2ccc(Cl)cc2)=C(CN2CCN(c3ccc(C(=O)NS(=O)(=O)c4ccc(N[C@H](CCN5CCOCC5)CSc5ccccc5)c(S(=O)(=O)C(F)(F)F)c4)cc3)CC2)C1; N
N#CCC1CCN(c2nc(Nc3ccc(N4CCC(O)CC4)cc3)c3c(=O)[nH]ncc3n2)CC1; N

Turning now to a further compound:
// query Write down the call the test reported for this compound. Item: `COc1cc(C(=O)N[C@@H]2CCCN(C)C2)ccc1Nc1ncc2c(n1)N(C1CCCC1)CC(C)(C)C(=O)N2C`
// result Y
